Documented log10(MIC) across a set of molecules
# Test system: Staphylococcus epidermidis
# Assay: Antibacterial activity against methicillin-sensitive Staphylococcus epidermidis isolate cpu0347 after 18 to 20 hrs by agar dilution method
# Type: functional
Parameter measured: log10(MIC) (log10 of the value in µg/mL)

# Smiles code, Parameter measured, Result value
rows = [
    ("C=C[C@]1(C)C[C@@H](OC(=O)CSCc2csc(NC(=O)CN3CCCCC3)n2)[C@]2(C)[C@H](C)CC[C@]3(CCC(=O)[C@H]32)[C@@H](C)[C@@H]1O", "log10(MIC)", -1.20),
    ("C=C[C@]1(C)C[C@@H](OC(=O)CSCc2csc(NC(=O)CN(CCC)CCC)n2)[C@]2(C)[C@H](C)CC[C@]3(CCC(=O)[C@H]32)[C@@H](C)[C@@H]1O", "log10(MIC)", -0.30),
    ("C=C[C@]1(C)C[C@@H](OC(=O)CSCc2csc(N)n2)[C@]2(C)[C@H](C)CC[C@]3(CCC(=O)[C@H]32)[C@@H](C)[C@@H]1O", "log10(MIC)", -0.90),
    ("CC1(C)S[C@@H]2[C@H](NC(=O)[C@H](N)c3ccc(O)cc3)C(=O)N2[C@H]1C(=O)O", "log10(MIC)", 0.90),
    ("C=C[C@]1(C)C[C@@H](OC(=O)CSCc2csc(NC(=O)CN3CCCC3)n2)[C@]2(C)[C@H](C)CC[C@]3(CCC(=O)[C@H]32)[C@@H](C)[C@@H]1O", "log10(MIC)", -0.60),
    ("C=C[C@]1(C)C[C@@H](OC(=O)CSCc2csc(NC(=O)CN(CCCC)CCCC)n2)[C@]2(C)[C@H](C)CC[C@]3(CCC(=O)[C@H]32)[C@@H](C)[C@@H]1O", "log10(MIC)", 0.90),
]
